src = patent US20090253709A1

system: HS 578T; test: In vitro cytotoxicity, Development Therapeutics Program; assay type: cell-based; settings: breast cancer, 1.0×10^−5 M
Measurement Type: Cellular growth rate (%)
Answer with the number, then the unit.

Cellular growth rate (%) measured on `CC(=O)Nc1ccc2c(c1)C(=O)c1cc(NC(C)=O)ccc1C2=O` = 133.05%

Notebook: `O=C(CCN1CCCC1)Nc1ccc2c(c1)C(=O)c1cc(NC(=O)CCN3CCCC3)ccc1C2=O` , Cellular growth rate (%) read as 5.26%

Recorded Cellular growth rate (%) (compound `CCN(CC)CCC(=O)Nc1ccc2c(c1)C(=O)c1cc(NC(=O)CCN(CC)CC)ccc1C2=O` ): −23.77%

The recorded Cellular growth rate (%) for entry `CN(C)CC(=O)Nc1ccc2c(c1)C(=O)c1cc(NC(=O)CN(C)C)ccc1C2=O` equals −6.11%

`O=C1c2ccc(NC(=O)C3CC3)cc2C(=O)c2cc(NC(=O)C3CC3)ccc21` yielded Cellular growth rate (%) of 118.90%

----------
test system: SR; test: In vitro cytotoxicity, Development Therapeutics Program; format: cell-based; conditions: leukemia, 1.0×10^−5 M
Measurement Type: Cellular growth rate (%)
Express the result in % but write the number alone.

* CC(=O)Nc1ccc2c(c1)C(=O)c1cc(NC(C)=O)ccc1C2=O | 3.61

Now let's try a different one.
SR data for `O=C(CCN1CCCC1)Nc1ccc2c(c1)C(=O)c1cc(NC(=O)CCN3CCCC3)ccc1C2=O` ; its Cellular growth rate (%): 19.75

----------
system: HT29; experiment: In vitro cytotoxicity, Development Therapeutics Program; format: cell-based; conditions: HT29, colon cancer; 1.0×10^−5 M
Below, each of the molecules is paired with its reported Cellular growth rate (%) value.
// note: answer is a bare numeric in %

Example entries and their recorded answers appear below.
- CN(C)CC(=O)Nc1ccc2c(c1)C(=O)c1cc(NC(=O)CN(C)C)ccc1C2=O: 11.73
- CC(=O)Nc1ccc2c(c1)C(=O)c1cc(NC(C)=O)ccc1C2=O: 107.23
- O=C1c2ccc(NC(=O)C3CC3)cc2C(=O)c2cc(NC(=O)C3CC3)ccc21: 106.26

Consider `CCN(CC)CCC(=O)Nc1ccc2c(c1)C(=O)c1cc(NC(=O)CCN(CC)CC)ccc1C2=O` . Its measured Cellular growth rate (%) is 3.30

Please fill in: Cellular growth rate (%) reported for `O=C(CCN1CCCC1)Nc1ccc2c(c1)C(=O)c1cc(NC(=O)CCN3CCCC3)ccc1C2=O` = 19.47

----------
Below, each entry is listed with its recorded melting point.
# unit: °C | format: bare number

Some compounds with recorded melting point:
* CCCCNCCC(=O)Nc1ccc2c(c1)C(=O)c1cc(NC(=O)CCNCCCC)ccc1C2=O | 168
* CC(C)NCC(=O)Nc1ccc2c(c1)C(=O)c1cc(NC(=O)CNC(C)C)ccc1C2=O | 158
* O=C(CCN1CCNCC1)Nc1ccc2c(c1)C(=O)c1cc(NC(=O)CCN3CCNCC3)ccc1C2=O | 218
* Nc1ccc2c(c1)C(=O)c1cc(N)ccc1C2=O | 342

Entry `O=C(Nc1ccc2c(c1)C(=O)c1cc(NC(=O)c3ccccc3)ccc1C2=O)c1ccccc1` — recorded melting point = 224

Memo: `O=C(CCN1CCCCC1)Nc1ccc2c(c1)C(=O)c1cc(NC(=O)CCN3CCCCC3)ccc1C2=O` , reported melting point: 266

// melting point value for `CN1CCN(CC(=O)Nc2ccc3c(c2)C(=O)c2cc(NC(=O)CN4CCN(C)CC4)ccc2C3=O)CC1` : 173

----------
tested on: A498; test: In vitro cytotoxicity, Development Therapeutics Program; assay type: cell-based; conditions: A498, renal cancer; 1.0×10^−5 M
Measurement Type: Cellular growth rate (%)
# number only, unit % dropped from output

// known answers, use as guide
- CN(C)CC(=O)Nc1ccc2c(c1)C(=O)c1cc(NC(=O)CN(C)C)ccc1C2=O: −6.39
- O=C1c2ccc(NC(=O)C3CC3)cc2C(=O)c2cc(NC(=O)C3CC3)ccc21: 92.35

The compound listed as `CCN(CC)CCC(=O)Nc1ccc2c(c1)C(=O)c1cc(NC(=O)CCN(CC)CC)ccc1C2=O` has a reported Cellular growth rate (%) of −38.76

Documented Cellular growth rate (%) of `O=C(CCN1CCCC1)Nc1ccc2c(c1)C(=O)c1cc(NC(=O)CCN3CCCC3)ccc1C2=O` : −0.91

Recorded Cellular growth rate (%) (compound `CC(=O)Nc1ccc2c(c1)C(=O)c1cc(NC(C)=O)ccc1C2=O` ): 115.60

----------
Test system: UACC-62
Test: In vitro cytotoxicity, Development Therapeutics Program
Type: cell-based
Details: UACC-62, melanoma; 1.0×10^−5 M
Text: From the in vitro experiments of the Development Therapeutics Program of the Cancer Research Institute, the United States, it was known that the synthetic heterocyclic anthraquinone derivatives of the present invention have different inhibition levels to the different cancer cell lines under the concentration of 1.0×10^−5 M. Please refer to Table 2, which is the result of in vitro cytotoxicity of 2,7-disubstituted anthraquinone derivatives of the present invention.
Use 80% as the dividing line for Cellular growth rate (%), with the line itself on the 1.0 side and lower values as 0.0.

Record excerpt, results attached:
• CN(C)CC(=O)Nc1ccc2c(c1)C(=O)c1cc(NC(=O)CN(C)C)ccc1C2=O [Compound 8] = 0.0
• CCN(CC)CCC(=O)Nc1ccc2c(c1)C(=O)c1cc(NC(=O)CCN(CC)CC)ccc1C2=O [Compound 16] = 0.0

Given CC(=O)Nc1ccc2c(c1)C(=O)c1cc(NC(C)=O)ccc1C2=O [Compound 26, 2,7-Bis(acetamido)anthraquinone] , state whether its Cellular growth rate (%) is at least 80%. 1.0

Item O=C(CCN1CCCC1)Nc1ccc2c(c1)C(=O)c1cc(NC(=O)CCN3CCCC3)ccc1C2=O [Compound 18] with Cellular growth rate (%) of 80% or above? 0.0

----------
assay: MTT assay in BJ1 cells; format: cell-based; conditions: human, hTERT-BJ1-PTERT(3.4)-SEAP cells; BJ1; compound concentration 100 μM; read-out: MTT (Inhibition μM ± SD)
Field: label. Allowed values: met (viability at 48 h, 100 µM < 90%) or not met (viability at 48 h, 100 µM >= 90%).

Record excerpt, results attached:
* O=C(CCN1CCCC1)Nc1ccc2c(c1)C(=O)c1cc(NC(=O)CCN3CCCC3)ccc1C2=O | met
* CCCCNCCC(=O)Nc1ccc2c(c1)C(=O)c1cc(NC(=O)CCNCCCC)ccc1C2=O | met
* CCN(CC)CCC(=O)Nc1ccc2c(c1)C(=O)c1cc(NC(=O)CCN(CC)CC)ccc1C2=O | met
* O=C1c2ccc([N+](=O)[O-])cc2C(=O)c2cc([N+](=O)[O-])ccc21 | met

Lab note: confirm whether the reported viability at 48 h, 100 µM for this compound is below 90%, equality not counting. compound: `O=C(Nc1ccc2c(c1)C(=O)c1cc(NC(=O)c3ccccc3)ccc1C2=O)c1ccccc1` not met

----------
test system: SF-539; test: In vitro cytotoxicity, Development Therapeutics Program; type: cell-based; conditions: SF-539, CNS cancer; 1.0×10^−5 M
Measurement Type: Cellular growth rate (%)
Hi! Could you send only the number? It should be in %, unit omitted.

* CN(C)CC(=O)Nc1ccc2c(c1)C(=O)c1cc(NC(=O)CN(C)C)ccc1C2=O [Compound 8] | −3.72

// recorded Cellular growth rate (%) for O=C(CCN1CCCC1)Nc1ccc2c(c1)C(=O)c1cc(NC(=O)CCN3CCCC3)ccc1C2=O [Compound 18] : 33.75

Noted for CC(=O)Nc1ccc2c(c1)C(=O)c1cc(NC(C)=O)ccc1C2=O [Compound 26, 2,7-Bis(acetamido)anthraquinone] : its Cellular growth rate (%) reads 103.04

// sample CCN(CC)CCC(=O)Nc1ccc2c(c1)C(=O)c1cc(NC(=O)CCN(CC)CC)ccc1C2=O [Compound 16] , its Cellular growth rate (%) was 37.15

Cellular growth rate (%) for O=C1c2ccc(NC(=O)C3CC3)cc2C(=O)c2cc(NC(=O)C3CC3)ccc21 [Compound 32] is 93.24

----------
This listing pairs compounds with measured viability at 24 h, 100 µM.
test: MTT assay in H1299 cells; type: cell-based; conditions: human, H1299 cells (H1299/PhTERT-driven SEAP reporter system); H1299; compound concentration 100 μM; read-out: MTT (Inhibition μM ± SD)
Please reply with the bare figure in % and do not write the unit itself.

These recorded examples may help you get a feel for the data.
- O=C1c2ccc(NC(=O)C3CC3)cc2C(=O)c2cc(NC(=O)C3CC3)ccc21 [Compound 32]: 43
- CCN(CC)CC(=O)Nc1ccc2c(c1)C(=O)c1cc(NC(=O)CN(CC)CC)ccc1C2=O [Compound 4]: 25
- O=C(CN1CCCCC1)Nc1ccc2c(c1)C(=O)c1cc(NC(=O)CN3CCCCC3)ccc1C2=O [Compound 7]: 35

viability at 24 h, 100 µM for CCNCC(=O)Nc1ccc2c(c1)C(=O)c1cc(NC(=O)CNCC)ccc1C2=O [Compound 10] is 3

get_value(item= O=C1c2ccc([N+](=O)[O-])cc2C(=O)c2cc([N+](=O)[O-])ccc21 [Compound 1, 2,7-dinitroanthraquinone] , readout=viability at 24 h, 100 µM) returns 69

Sure, the documented viability at 24 h, 100 µM for O=C(CCN1CCCCC1)Nc1ccc2c(c1)C(=O)c1cc(NC(=O)CCN3CCCCC3)ccc1C2=O [Compound 19] is 18

Entry CCC(=O)Nc1ccc2c(c1)C(=O)c1cc(NC(=O)CC)ccc1C2=O [Compound 27, 2,7-Bis(propionamido)anthraquinone] — recorded viability at 24 h, 100 µM = 35
